Numbers sourced from paper PMC9482650.

Kindly state pKd for each of the entries shown.
MEASUREMENT TARGET: PTPN3, P26045
Sequence (P26045 505-587): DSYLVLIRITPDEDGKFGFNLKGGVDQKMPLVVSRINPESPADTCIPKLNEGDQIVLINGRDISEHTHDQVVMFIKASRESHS
METHOD NOTES: holdup assay
Set-up: key: below the threshold = too weak to quantify, mostly under pKd 3.1 to 4
STATED CONDITIONS: plain residues with an end cap or a label only (N-terminal biotin on a linker: ado-ado)
API doc: respond with a numeric literal and nothing else, no unit.

The binder listed as TKEIPNCTSV [SORCS3, Q9UPU3] has a reported pKd of 4.74

The binder listed as FLVTEFNVML [DFNB31, Q9P202] has a reported pKd of 3.89

The binder listed as KIEDVEITLV [FCHSD2, O94868] has a reported pKd of 3.5

The binder listed as FHSIKQSTAV [CRHR1, P34998] has a reported pKd of 4.6

The binder listed as AHGSTRDQSI [KCNB1, Q14721] has a reported pKd of 4.07

The binder listed as GQNMTVSVVI [PRLHR, P49683] has a reported pKd of 3.77

The binder listed as GSQSQVETEA [FKBP4, Q02790] has a reported pKd of 4.08

The binder listed as KSRPENGTVC [TMEM178B, H3BS89] has a reported pKd of 3.77

The binder listed as NTALVESEDL [PALLS, Q8WX93;Q8WX93-1] has a reported pKd of 4.33
